In this section, each of the molecules is paired with its reported % Inhibition Relative to Negative Control, 3A4.
MEASURED TARGET: CYP3A4 (Homo sapiens, UniProt P08684)
Construct: from tissue; host or cells: human liver microsomes
Sequence (P08684 whole entry): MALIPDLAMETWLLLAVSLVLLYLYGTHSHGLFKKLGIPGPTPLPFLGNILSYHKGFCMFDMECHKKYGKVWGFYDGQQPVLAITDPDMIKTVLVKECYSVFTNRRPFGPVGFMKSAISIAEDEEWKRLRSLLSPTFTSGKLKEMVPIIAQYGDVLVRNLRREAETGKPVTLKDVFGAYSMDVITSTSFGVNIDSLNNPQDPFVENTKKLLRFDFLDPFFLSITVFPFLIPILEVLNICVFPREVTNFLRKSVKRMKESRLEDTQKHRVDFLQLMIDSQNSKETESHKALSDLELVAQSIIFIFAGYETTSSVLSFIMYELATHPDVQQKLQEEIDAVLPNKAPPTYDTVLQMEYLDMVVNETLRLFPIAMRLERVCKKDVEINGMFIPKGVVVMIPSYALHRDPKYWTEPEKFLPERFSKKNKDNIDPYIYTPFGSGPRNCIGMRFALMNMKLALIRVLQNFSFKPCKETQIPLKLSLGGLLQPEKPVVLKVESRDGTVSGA
ASSAY COMMENT: CYP profiling: human liver microsomes with CYP3A4 inhibitor ketoconazole
Type: in vitro ADME
TEST CONTEXT: HLMs, 30 min
METRIC NAME: % Inhibition Relative to Negative Control, 3A4 (%)

>>> number("CC[C@H](O)c1csc(C(=O)c2c[nH]c3cc(F)ccc23)n1 [ARI-164]")
8
>>> number("N[C@H](c1csc(C(=O)c2c[nH]c3ccccc23)n1)C(F)(F)F [ARI-228]")
16
